- TEST TARGET: Ubiquitin-conjugating enzyme E2 N (Homo sapiens, UniProt P61088);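 also: Dose-response confirmation in a TR-FRET assay detecting UBC13-driven polyubiquitin chain formation, inhibition measured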
- Sequence (P61088 whole entry): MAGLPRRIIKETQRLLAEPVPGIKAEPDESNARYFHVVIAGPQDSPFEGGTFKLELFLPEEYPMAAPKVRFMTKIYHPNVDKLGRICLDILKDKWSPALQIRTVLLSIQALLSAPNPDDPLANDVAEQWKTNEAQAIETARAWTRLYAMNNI
- Assay type: functional
Active and inactive are the calls of the source.
Respond only with the outcome that fits, drawn from active, inactive

COc1ccc(C[C@H]2CN3C(=NC[C@H]3Cc3ccccc3)N2CCNC(=O)CCC2CCCCC2)cc1: inactive
CC(C)(C)c1cc(NCCCn2ccnc2)n2ncc(-c3ccc(Cl)cc3)c2n1: inactive
NCCCC[C@@H](C(=O)N1CCNCC1)n1cc(CN)nn1: inactive
CCCC(=O)N(CCN1CCOCC1)c1nc2c(C)cccc2s1: inactive
C/C(=N\NC(=O)CSCc1ccc([N+](=O)[O-])cc1)c1ccccc1O: inactive

Request: Write down the call the test reported for this compound. Item: C=C[C@](C)(CC[C@@]1(C)C(C)CC(OC2OC(C)C(OC3OC(COC(C)=O)C(O)C(O)C3O)C(O)C2O)[C@@]2(C)C(C)=CCCC12)OC1OC(C)C(O[C@@H]2O[C@@H](C)C(O)C(O)[C@H]2O)C(O)C1O (stereo partly specified)
Response: inactive

Request: Which outcome did this test record for the compound `CC(C)(C)c1cc(-c2nc(N)nc(N)n2)c(O)c(C(C)(C)C)c1` ?
Response: inactive

Request: Recorded test outcome, item `CCCCN(C)CCNC(=O)c1ccc(Cn2c(=S)[nH]c3ccc(Br)cc3c2=O)cc1`
Response: active

Request: Look up the recorded call for `Cc1cc(C)c2sc(N(CCCN(C)C)C(=O)c3ccc(S(=O)(=O)N(C)Cc4ccccc4)cc3)nc2c1` in this test.
Response: active

Request: # lookup: test call for C[C@@H](O)C1NC(=O)[C@H](CCCCN)NC(=O)c2cc([N+](=O)[O-])cc(F)c2NCCCC[C@@H](C(N)=O)NC1=O (stereo partly specified)
Response: active

Request: For this compound, state the assay outcome: `CC1=CC(C)(C)n2c(O)c(/N=N/C(=N)S)c3cc(C)cc1c32`
Response: inactive
